Item-by-item account of IC50
target: Prostaglandin G/H synthase 1 (Rattus norvegicus, UniProt Q63921); test: Concentration required to inhibit cyclooxygenase-1 in rat blood
Sequence (Q63921 whole entry): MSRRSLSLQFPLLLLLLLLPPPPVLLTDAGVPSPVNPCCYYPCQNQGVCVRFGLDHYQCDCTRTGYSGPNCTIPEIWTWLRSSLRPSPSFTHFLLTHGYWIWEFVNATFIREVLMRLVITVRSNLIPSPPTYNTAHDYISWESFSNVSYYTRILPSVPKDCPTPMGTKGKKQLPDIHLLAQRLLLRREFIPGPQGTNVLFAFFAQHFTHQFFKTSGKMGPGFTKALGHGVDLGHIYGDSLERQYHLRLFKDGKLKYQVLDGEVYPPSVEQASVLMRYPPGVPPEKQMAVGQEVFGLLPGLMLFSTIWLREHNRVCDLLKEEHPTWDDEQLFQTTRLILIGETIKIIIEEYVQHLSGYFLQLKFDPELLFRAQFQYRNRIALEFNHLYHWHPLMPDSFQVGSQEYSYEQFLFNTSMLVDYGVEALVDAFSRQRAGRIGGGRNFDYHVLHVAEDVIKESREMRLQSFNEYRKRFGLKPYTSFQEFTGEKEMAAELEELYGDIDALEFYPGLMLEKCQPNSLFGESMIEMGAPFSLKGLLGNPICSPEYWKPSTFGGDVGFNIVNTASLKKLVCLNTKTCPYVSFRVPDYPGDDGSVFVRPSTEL
Write it as a number; the unit nM goes unstated.

Worked examples, 2 compounds total:
{"columns": ["compound", "study_system", "IC50 [nM]"],
 "data": [
  ["C[C@H](C(=O)O)c1ccc(-c2ccccc2)c(F)c1", "Prostaglandin G/H synthase 1 (Rattus norvegicus, UniProt Q63921)", 30],
  ["C[C@@H](C(=O)O)c1ccc(-c2ccccc2)c(F)c1", "Prostaglandin G/H synthase 1 (Rattus norvegicus, UniProt Q63921)", 44000]
]}

Okay, now this compound:
Input line: Any idea what its IC50 is? The compound is CC(C(=O)O)c1ccc(-c2ccccc2)c(F)c1 (stereo not drawn)
Output line: 170

###

assay: Elimination phase half-life after administration to rats at a dose of 2.5 mg/kg orally; assay type: ADME, organism-based; design: dose 2.5 mg/kg, route oral; conditions: rat, in vivo, po
Item-by-item account of half-life
Write it as a number; the unit h goes unstated.

{"columns": ["smiles_representation", "half-life, h"],
 "data": [
  ["O=C(O)C1(c2ccc(-c3ccc(C(F)(F)F)cc3)c(F)c2)CC1", 32.8]
]}

Okay, now this compound:
Input line: Any idea what its half-life is? The compound is O=C(O)C1(c2ccc(-c3ccc(Cl)c(Cl)c3)c(F)c2)CC1
Output line: 20.7

###

target: UniProtKB P11712; assay: Interaction with human cytochrome P450 isoform 2C9 expressed in baculovirus-insect cells at 100 uM; assay type: ADME
Sequence (P11712 whole entry, canonical isoform): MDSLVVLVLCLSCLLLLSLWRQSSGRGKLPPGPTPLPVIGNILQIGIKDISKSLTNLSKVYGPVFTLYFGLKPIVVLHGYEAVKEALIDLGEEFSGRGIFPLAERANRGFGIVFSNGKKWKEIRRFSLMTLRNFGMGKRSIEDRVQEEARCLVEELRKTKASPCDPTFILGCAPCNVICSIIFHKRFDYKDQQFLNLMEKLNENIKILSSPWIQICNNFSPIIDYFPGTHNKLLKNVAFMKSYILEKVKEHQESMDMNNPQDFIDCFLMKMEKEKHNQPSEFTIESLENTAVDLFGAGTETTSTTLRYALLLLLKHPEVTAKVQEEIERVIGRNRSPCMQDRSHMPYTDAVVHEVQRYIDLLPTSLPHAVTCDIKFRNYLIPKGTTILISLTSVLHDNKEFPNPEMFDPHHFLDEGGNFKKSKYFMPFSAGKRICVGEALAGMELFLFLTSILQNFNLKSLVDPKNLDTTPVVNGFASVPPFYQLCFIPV
Item-by-item account of inhibition at 100 µM

Worked examples, 2 molecules total:
{"columns": ["molecule", "inhibition at 100 µM"],
 "data": [
  ["CC(c1ccc(-c2ccc(C(F)(F)F)cc2)c(F)c1)c1nnn[nH]1 (stereo not drawn)", "> 50%"],
  ["CC(C(=O)NS(C)(=O)=O)c1ccc(-c2ccc(C(F)(F)F)cc2)c(F)c1 (stereo not drawn)", "> 50%"]
]}

Okay, now this molecule:
Input line: Any idea what its inhibition at 100 µM is? The molecule is CC(c1ccc(-c2ccc(C(F)(F)F)cc2)c(F)c1)c1noc(O)n1 (stereo not drawn)
Output line: > 50%

###

test: Total body clearance after administration to rats at a dose of 0.5 mg/kg intravenously; conditions: rat, in vivo, iv
measured_parameter: Clearance (mL/h/kg)
Write it as a number; the unit mL/h/kg goes unstated.

Input line: Any idea what its Clearance is? The molecule is O=C(O)C1(c2ccc(-c3ccc(Cl)c(Cl)c3)c(F)c2)CC1
Output line: 2.9

###

assay: Absolute oral bioavailability after administration to rats at a dose of 2.5 mg/kg orally; settings: rat, in vivo
measured_parameter: bioavailability
Could you give the number and then its unit, please?

Input line: Any idea what its bioavailability is? The compound is O=C(O)C1(c2ccc(-c3ccc(C(F)(F)F)cc3)c(F)c2)CC1
Output line: 90.9%

###

assay: Maximal concentration in rats after 0.2 mg/kg intravenous dose; format: ADME, organism-based; design: dose 0.2 mg/kg, route intravenous; settings: rat, in vivo
measured_parameter: Cmax (ng/mL)
Write it as a number; the unit ng/mL goes unstated.

Input line: Any idea what its Cmax is? The compound is O=C(O)C1(c2ccc(-c3ccc(OC4CCC(C(F)(F)F)CC4)cc3)c(F)c2)CC1 (stereo unspecified)
Output line: 600
